Each item that follows carries a reported log10(TGI).
tested on: MALME-3M melanoma; test: NCI tumour cell line growth inhibition, 48 h
measurement kind: log10(TGI) (log10 of the value in µM)

>>> assay_result("COc1ccc(/C=C\\c2cc(OC)c(OC)c(OC)c2)cc1OC(=O)NCCN(C)C")
1.99
>>> assay_result("Cc1ccc(/C=C2\\CCC/C(=C\\c3ccc(O)c(CN4CCCCC4)c3)C2=O)cc1")
1.64
>>> assay_result("CCN(CC)CCCC(C)Nc1cnc(C(=O)Nc2cccc3ccc(OC)nc23)cn1 (centres undefined)")
0.51
>>> assay_result("CC(C)(C)[Si](C)(C)OCC1OC(n2cc(I)c(N)nc2=O)C(O[Si](C)(C)C(C)(C)C)C1O[Si](C)(C)C(C)(C)C (centres undefined)")
1.54
>>> assay_result("CCCCCN(CCCCC)CC(O)c1ccc(Cl)c2ccccc12 (centres undefined)")
1.51
>>> assay_result("C=C(CC[C@@H](C)[C@H]1CC[C@@]2(C)C3=C(CC[C@]12C)[C@@]1(C)CC[C@H](O)[C@@H](C)C1CC3)C(C)C (some centres undefined)")
0.40
>>> assay_result("COc1ccc(OC)c(C(=O)c2oc3ccc(Br)cc3c2N)c1")
1.67
>>> assay_result("COC(=O)c1c(C)[nH]c(/C=C2\\N=C(c3ccc[nH]3)C=C2OC)c1C")
0.31
>>> assay_result("O=C(O)Cc1cccc2c1OC(c1ccccc1)C(Cl)(C(=O)c1ccccc1)C2=O (centres undefined)")
1.54
